Cited source: PubChem BioAssay AID2060627

Test system: 156681-154-R-J1-PDC complex spheroid viability
protocolDescription: Anticancer human tumor 156681-154-R-J1-PDC patient-derived melanoma cell line growth inhibition [CLK]; active = viability on the fitted dose curve at most 10% of control; inactive = the rest
setupConditions: second compound 10 µM; first compound 0.0316 µM
Parameter call: string, one of 1 (active), -1 (inactive)

// known answers, use as guide
Cn1ncnc1[C@H]1c2n[nH]c(=O)c3cc(F)cc(c23)N[C@@H]1c1ccc(F)cc1 + CN1CCN(c2cc(C(=O)Nc3cc4cc(-c5cnn(C)c5)ccc4cn3)ccn2)CC1
1
CC(CO)NC(=O)c1cc(-c2ccc(Cl)cc2)nn(-c2cnn(C)c2)c1=O (stereo not drawn) + CNC(=O)c1ccc(Nc2nc(OC3CCCC3)c3c(-c4ccc5nc(C)oc5c4)c[nH]c3n2)c(OC)c1
-1

Query: For COC1C=CCC(C)C(C)S(=O)(=O)NC(=O)c2ccc3c(c2)N(CC2CCC21)CC1(CCCc2cc(Cl)ccc21)CO3 (stereo not drawn) + CN1CCN(c2cc(C(=O)Nc3cc4cc(-c5cnn(C)c5)ccc4cn3)ccn2)CC1 , which call appears in the assay record?
Reply: 1

---

System: 156681-154-R-J1-PDC complex spheroid viability
protocolDescription: Anticancer human tumor 156681-154-R-J1-PDC cell line growth inhibition [CLK];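 also: spheroids exposed to the agents for seven days; 100% = DMSO vehicle control viability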
setupConditions: second compound 3.16 µM; first compound 0.1 µM; stronger effect = lower value
Entries and their measured viability, T/C follow.
Answer format: numeric, % implied, no suffix.

C#Cc1c(F)ccc2cc(O)cc(-c3ncc4c(N5CC6CCC(C5)N6)nc(OCC56CCCN5CC(F)C6)nc4c3F)c12 (stereo not given) + CN1CCN(c2cc(C(=O)Nc3cc4cc(-c5cnn(C)c5)ccc4cn3)ccn2)CC1
0.39
C=CC(=O)N1CCN(c2nc(=O)n(-c3c(C)ccnc3C(C)C)c3nc(-c4c(O)cccc4F)c(F)cc23)C(C)C1 (stereo not given) + CN1CCN(c2cc(C(=O)Nc3cc4cc(-c5cnn(C)c5)ccc4cn3)ccn2)CC1
0.21
CCCS(=O)(=O)Nc1ccc(F)c(C(=O)c2c[nH]c3ncc(-c4ccc(Cl)cc4)cc23)c1F + CN1CCN(c2cc(C(=O)Nc3cc4cc(-c5cnn(C)c5)ccc4cn3)ccn2)CC1
0.48
C#Cc1c(F)ccc2cc(O)cc(-c3ncc4c(N5CC6CCC(C5)N6)nc(OCC56CCCN5CC(F)C6)nc4c3F)c12 (stereo not given) + CNC(=O)c1ccc(Nc2nc(OC3CCCC3)c3c(-c4ccc5nc(C)oc5c4)c[nH]c3n2)c(OC)c1
49.8

Pending compound:
Query: Provide viability, T/C value for the following compound: COc1ccc([C@@H](O)c2cc(-c3ncnc4cc(N5CCOCC5)ccc34)c(F)cc2Cl)nn1 + CN1CCN(c2cc(C(=O)Nc3cc4cc(-c5cnn(C)c5)ccc4cn3)ccn2)CC1
Reply: 1.44

---

System: 156681-154-R-J1-PDC complex spheroid viability
protocolDescription: Anticancer human tumor 156681-154-R-J1-PDC cell line growth inhibition [CLK];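 also: spheroids exposed to the agents for seven days; 100% = DMSO vehicle control viability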
setupConditions: second compound 3.16 µM; first compound 0.316 µM; stronger effect = lower value
Decide using viability, T/C alone. Strictly below 3%: YES. Equal to or above 3%: NO.

CC1(C)CCC(CN2CCN(c3ccc(C(=O)NS(=O)(=O)c4ccc(NCC5CCOCC5)c([N+](=O)[O-])c4)c(Oc4cnc5[nH]ccc5c4)c3)CC2)=C(c2ccc(Cl)cc2)C1 + CNC(=O)c1ccc(Nc2nc(OC3CCCC3)c3c(-c4ccc5nc(C)oc5c4)c[nH]c3n2)c(OC)c1
NO
C=CC(=O)N1CCN(c2nc(=O)n(-c3c(C)ccnc3C(C)C)c3nc(-c4c(O)cccc4F)c(F)cc23)C(C)C1 (stereo not given) + CN1CCN(c2cc(C(=O)Nc3cc4cc(-c5cnn(C)c5)ccc4cn3)ccn2)CC1
YES
COc1c(OCCCN2CCOCC2)ccc2c3n(c(=NC(=O)c4cnc(N)nc4)nc12)CCN3 + CNC(=O)c1ccc(Nc2nc(OC3CCCC3)c3c(-c4ccc5nc(C)oc5c4)c[nH]c3n2)c(OC)c1
YES
O=c1[nH]cc(F)c(=O)[nH]1 + CN1CCN(c2cc(C(=O)Nc3cc4cc(-c5cnn(C)c5)ccc4cn3)ccn2)CC1
YES
CC(Nc1ccc2c(c1)OCCn1cc(N3C(=O)OCC3C(F)F)nc1-2)C(N)=O (stereo not given) + CN1CCN(c2cc(C(=O)Nc3cc4cc(-c5cnn(C)c5)ccc4cn3)ccn2)CC1
YES

Query: Hi there! Is viability, T/C for COc1ccc([C@@H](O)c2cc(-c3ncnc4cc(N5CCOCC5)ccc34)c(F)cc2Cl)nn1 + CNC(=O)c1ccc(Nc2nc(OC3CCCC3)c3c(-c4ccc5nc(C)oc5c4)c[nH]c3n2)c(OC)c1 below 3%, do you know?
Reply: NO

Query: Report whether reported viability, T/C is lower than 3% (strictly) for COc1c(OCCCN2CCOCC2)ccc2c3n(c(=NC(=O)c4cnc(N)nc4)nc12)CCN3 + CN1CCN(c2cc(C(=O)Nc3cc4cc(-c5cnn(C)c5)ccc4cn3)ccn2)CC1
Reply: YES

Query: Say whether its viability, T/C is strictly beneath 3%. Entry: CC(=O)O[C@H]1C(=O)[C@@]2(C)[C@H]([C@H](OC(=O)c3ccccc3)[C@]3(O)C[C@H](OC(=O)[C@H](O)[C@@H](NC(=O)c4ccccc4)c4ccccc4)C(C)=C1C3(C)C)[C@]1(OC(C)=O)CO[C@@H]1C[C@@H]2O + CN1CCN(c2cc(C(=O)Nc3cc4cc(-c5cnn(C)c5)ccc4cn3)ccn2)CC1
Reply: YES

Query: # strict comparison: is reported viability, T/C < 3%? input = CCc1c2c(nc3ccc(O)cc13)-c1cc3c(c(=O)n1C2)COC(=O)[C@]3(O)CC + CNC(=O)c1ccc(Nc2nc(OC3CCCC3)c3c(-c4ccc5nc(C)oc5c4)c[nH]c3n2)c(OC)c1
Reply: NO

Query: Would you kindly verify if viability, T/C of CC(CO)NC(=O)c1cc(-c2ccc(Cl)cc2)nn(-c2cnn(C)c2)c1=O (stereo not given) + CN1CCN(c2cc(C(=O)Nc3cc4cc(-c5cnn(C)c5)ccc4cn3)ccn2)CC1 is strictly less than 3%?
Reply: YES
